- target-entity: EP4 V320A (Homo sapiens, UniProt P35408, V320A)
- Construct: The full-length EP2 or EP4 was cloned into the pcDNA3.1 vector (Invitrogen), incorporating an N-terminal FLAG tag
- Sequence (P35408 whole entry V320A): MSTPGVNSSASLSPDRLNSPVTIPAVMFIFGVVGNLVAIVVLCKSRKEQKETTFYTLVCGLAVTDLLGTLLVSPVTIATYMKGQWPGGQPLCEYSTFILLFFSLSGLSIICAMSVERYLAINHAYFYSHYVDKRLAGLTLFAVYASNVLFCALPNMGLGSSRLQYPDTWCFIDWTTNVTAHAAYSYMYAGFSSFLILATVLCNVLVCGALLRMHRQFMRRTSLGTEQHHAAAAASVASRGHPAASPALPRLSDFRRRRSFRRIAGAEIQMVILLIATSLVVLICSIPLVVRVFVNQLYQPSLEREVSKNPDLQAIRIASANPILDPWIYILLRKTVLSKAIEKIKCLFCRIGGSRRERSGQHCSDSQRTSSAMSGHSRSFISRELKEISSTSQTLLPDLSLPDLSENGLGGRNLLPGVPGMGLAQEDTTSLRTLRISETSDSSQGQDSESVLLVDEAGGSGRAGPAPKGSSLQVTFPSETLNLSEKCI
- test-details: GloSensor cAMP assay, antagonism of PGE2-induced cAMP
I'd be grateful if you could share measured pIC50 for these entries.
Field pIC50 (float): negative decimal logarithm of the concentration in molar.

Give EP4 V320A (Homo sapiens, UniProt P35408, V320A) pIC50 for CCc1nc2c(C)nc(C)cc2n1-c1ccc(CCNC(=O)NS(=O)(=O)c2ccc(C)cc2)cc1 [Grapiprant] 6.47

Give EP4 V320A (Homo sapiens, UniProt P35408, V320A) pIC50 for CCc1nnc(NS(=O)(=O)c2ccc(NC(=S)NC(=O)/C=C/c3ccc(F)cc3)cc2)s1 [TG6-129] 4.87
